TARGET_OR_SYSTEM: T1, ER α (UniProt P03372 1-595, limits assumed)
T1 construct: also called estrogen receptor α; ERα-ERE
T1 sequence (looked up): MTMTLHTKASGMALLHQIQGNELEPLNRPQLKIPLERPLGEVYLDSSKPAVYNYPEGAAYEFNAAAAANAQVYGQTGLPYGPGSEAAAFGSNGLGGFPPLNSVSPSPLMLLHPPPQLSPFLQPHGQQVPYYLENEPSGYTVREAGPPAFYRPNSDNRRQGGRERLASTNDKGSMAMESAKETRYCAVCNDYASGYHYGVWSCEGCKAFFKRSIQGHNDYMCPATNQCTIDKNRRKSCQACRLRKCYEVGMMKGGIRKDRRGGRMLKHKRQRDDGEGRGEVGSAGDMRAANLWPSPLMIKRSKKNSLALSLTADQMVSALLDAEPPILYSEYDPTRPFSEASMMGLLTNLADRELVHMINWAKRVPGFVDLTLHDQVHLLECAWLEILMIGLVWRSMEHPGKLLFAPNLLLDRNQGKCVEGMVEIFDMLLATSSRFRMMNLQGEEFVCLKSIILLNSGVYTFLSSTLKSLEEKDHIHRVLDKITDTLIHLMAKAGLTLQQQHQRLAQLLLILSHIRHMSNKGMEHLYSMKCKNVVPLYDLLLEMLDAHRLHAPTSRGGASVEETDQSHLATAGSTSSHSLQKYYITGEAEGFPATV
ASSAY_DETAILS: phage isolated on ERα-ERE; Estradiol
No end group written: not given here.
MEASUREMENT_TYPE: binding result

Sample answers from the record:
SSTGILWKLLTAESR [3E] = binds
SRLEELLLMDFWRSR [5E] = binds
SRLTCLLQSNGWDSEQCSR [E1-7] = binds
HSHPHHSHLLYKLMGG [E1-3] = binds
SSLRCYLSSSKVDQWACSR (not fully specified; cysteine pairing not given here) [17E] = binds
SSCLREILLYGACSR (not fully specified; cysteine pairing not given here) [13E] = binds
HSHSPLLMALLAPPGG [15E] = binds
SSYKPHSLLEWHLLGGTSR [18E] = binds
HSHNHHSPWLFRLLGG [E1-1] = binds

Here is another binder to look at.
Qu. Output binding result of SSKLWQLLSSPIDSR [6E]
Ans. binds
